Each recorded value in this set is attributed to patent US11427544B2.

Molecular target: HDAC6 (Homo sapiens, UniProt Q9UBN7)
Construct: purchased BPS Bioscience Corp
Sequence (Q9UBN7 whole entry): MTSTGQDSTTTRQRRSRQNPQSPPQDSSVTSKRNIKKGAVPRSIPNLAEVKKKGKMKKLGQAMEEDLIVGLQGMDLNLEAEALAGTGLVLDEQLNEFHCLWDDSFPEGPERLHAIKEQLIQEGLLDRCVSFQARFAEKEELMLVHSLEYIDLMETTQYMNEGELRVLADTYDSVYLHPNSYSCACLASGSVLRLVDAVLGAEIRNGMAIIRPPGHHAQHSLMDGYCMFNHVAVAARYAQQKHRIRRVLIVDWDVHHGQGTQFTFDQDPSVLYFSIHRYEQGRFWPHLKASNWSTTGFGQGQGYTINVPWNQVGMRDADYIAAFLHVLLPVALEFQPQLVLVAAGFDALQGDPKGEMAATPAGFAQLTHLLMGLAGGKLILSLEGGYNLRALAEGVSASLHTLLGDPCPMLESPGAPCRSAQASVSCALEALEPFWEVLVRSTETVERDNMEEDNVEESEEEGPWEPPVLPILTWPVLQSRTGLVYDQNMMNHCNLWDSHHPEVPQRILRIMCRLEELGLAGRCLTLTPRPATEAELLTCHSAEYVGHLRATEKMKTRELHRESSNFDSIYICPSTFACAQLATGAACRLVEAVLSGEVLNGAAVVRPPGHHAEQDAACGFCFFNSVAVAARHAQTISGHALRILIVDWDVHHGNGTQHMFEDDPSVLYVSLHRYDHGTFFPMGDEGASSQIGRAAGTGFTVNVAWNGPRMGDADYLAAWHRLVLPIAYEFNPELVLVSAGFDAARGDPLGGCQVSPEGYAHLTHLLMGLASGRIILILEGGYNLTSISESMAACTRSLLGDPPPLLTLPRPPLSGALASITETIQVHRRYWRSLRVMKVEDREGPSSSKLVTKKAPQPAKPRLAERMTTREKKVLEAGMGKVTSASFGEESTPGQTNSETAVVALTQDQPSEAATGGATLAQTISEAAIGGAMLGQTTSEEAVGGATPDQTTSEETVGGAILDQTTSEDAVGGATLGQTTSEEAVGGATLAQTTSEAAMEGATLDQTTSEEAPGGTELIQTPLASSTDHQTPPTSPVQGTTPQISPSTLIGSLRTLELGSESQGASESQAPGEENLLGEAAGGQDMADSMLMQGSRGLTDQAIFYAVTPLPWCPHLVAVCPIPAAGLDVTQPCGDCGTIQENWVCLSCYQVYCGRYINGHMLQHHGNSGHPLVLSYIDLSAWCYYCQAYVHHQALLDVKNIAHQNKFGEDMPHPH
Assay: Fluorogenic HDAC assay, HDAC6
Type: biochemical
Listed below: pIC50 values for each entry.
# pIC50: negative log10 of molar concentration; output just the value

Molecule	Reported result
O=C(NO)c1ccc(CNc2cccc3ncccc23)cc1 [Compound 12]	8.56

QUERY: Write down the reported pIC50 of O=C(NO)c1ccc(CNc2cccc3cccnc23)cc1 [Compound 28] , test system: HDAC6 (Homo sapiens, UniProt Q9UBN7).
RESULT: 8.36

###

Reported GI50 values follow for various molecules
Tested on: PC-3 prostate cancer cell line
Assay: Antiproliferative activity, PC-3
Type: cell-based, human
Details: Homo sapiens
Write down the numeric answer in µM and omit the unit.

Observe how each entry below is paired with its result.
O=C(NO)c1ccc(CNc2cnc3ccccc3c2)cc1 1.62
O=C(/C=C/c1ccc(CNc2cccc3ncccc23)cc1)NO 0.62
O=C(NO)c1ccc(CSc2cccc3cccnc23)cc1 4.29

Consider the record given below.
QUERY: What value of GI50 has been reported for the following molecule? O=C(NO)c1ccc(COc2cccc3cccnc23)cc1
RESULT: 6.23

###

Target: HDAC1 (Homo sapiens, UniProt Q13547)
Sequence (Q13547 whole entry): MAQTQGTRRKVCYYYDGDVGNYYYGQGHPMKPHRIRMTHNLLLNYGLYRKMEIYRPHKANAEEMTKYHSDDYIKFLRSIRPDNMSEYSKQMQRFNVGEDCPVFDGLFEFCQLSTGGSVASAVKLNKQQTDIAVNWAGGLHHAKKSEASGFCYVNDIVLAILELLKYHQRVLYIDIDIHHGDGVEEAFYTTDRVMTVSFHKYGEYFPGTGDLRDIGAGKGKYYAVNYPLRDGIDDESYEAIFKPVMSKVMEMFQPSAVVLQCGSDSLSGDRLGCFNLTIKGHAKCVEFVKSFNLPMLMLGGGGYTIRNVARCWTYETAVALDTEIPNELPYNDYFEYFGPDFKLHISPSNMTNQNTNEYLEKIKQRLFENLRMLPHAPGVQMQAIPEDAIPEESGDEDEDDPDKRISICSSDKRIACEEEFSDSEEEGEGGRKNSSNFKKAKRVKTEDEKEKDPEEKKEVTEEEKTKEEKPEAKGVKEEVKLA
Test: Fluorogenic HDAC assay, HDAC1
Conditions: recombinant HDAC1; read-out: Enzyme IC50 HDAC1
// reported pIC50 for each item listed
// scale note: pIC50 = -log10(conc_M); give the bare number

O=C(NO)c1ccc(CNc2cccc3cccnc23)cc1 5.17
O=C(NO)c1ccc(CSc2cccc3cccnc23)cc1 5.66
O=C(NO)c1ccc(CNc2cnc3ccccc3c2)cc1 6.11
Cc1ccc2cccc(NCc3ccc(C(=O)NO)cc3)c2n1 5.77
O=C(NO)c1ccc(CNc2cccc3ncccc23)cc1 5.58

The record that follows has no pIC50 shown yet.
QUERY: Which pIC50 is listed for O=C(NO)c1ccc(NCc2cccc3cccnc23)cc1 ?
RESULT: 5.69

###

Tested on: PC-3 prostate cancer cell line
Assay: Antiproliferative activity, PC-3
Type: cell-based, human
Settings: Homo sapiens
Property: GI50 (µM)
Answer in µM, number only, no unit symbol.

Compound	Measured target	Unit symbol	GI50
O=C(/C=C/c1ccc(C(=O)Nc2cccc3cccnc23)cc1)NO [Compound 34]	PC-3 prostate cancer cell line	µM	3.51
O=C(NO)c1ccc(CNc2cccc3ccncc23)cc1 [Compound 56]	PC-3 prostate cancer cell line	µM	4.91
O=C(NO)c1ccc(CNc2cccc3cccnc23)cc1 [Compound 28]	PC-3 prostate cancer cell line	µM	3.4
O=C(/C=C/c1ccc(CNc2cnc3ccccc3c2)cc1)NO [Compound 6]	PC-3 prostate cancer cell line	µM	0.38
O=C(NO)c1ccc(CNc2cccc3cnccc23)cc1 [Compound 54]	PC-3 prostate cancer cell line	µM	6.06

Now turn to the next compound.
QUERY: Item O=C(/C=C/c1ccc(CNc2cccc3cccnc23)cc1)NO [Compound 30] has what recorded GI50?
RESULT: 1.25

###

Tested on: PC-3 prostate cancer cell line
Experiment: Antiproliferative activity, PC-3
Type: cell-based, human
Conditions: Homo sapiens
Property: GI50 (µM)
The reply should contain only the number, in µM.

QUERY: Reported GI50, molecule O=C(NO)c1ccc(C(=O)NCc2cccc3cccnc23)cc1 [Compound 47] : ____
RESULT: 2.08

QUERY: Quick one: GI50 for O=C(NO)c1ccc(CCc2cccc3cccnc23)cc1 [Compound 52] ?
RESULT: 9.66

QUERY: Form field: reported GI50 of Cc1ccc2cccc(NCc3ccc(C(=O)NO)cc3)c2n1 [Compound 68]
RESULT: 4.45

QUERY: Query: GI50; subject: O=C(NO)c1ccc(CNc2cccc3ncccc23)cc1 [Compound 12]
RESULT: 3.28

QUERY: Item O=C(NO)c1ccc(CNc2ccc3cccnc3c2)cc1 [Compound 42] has what recorded GI50?
RESULT: 2.64

QUERY: Which GI50 reading was recorded for the molecule O=C(NO)c1ccc(CNc2ccc3ccccc3n2)cc1 [Compound 40] ?
RESULT: 0.85
